Source: patent US20240109917A1

His6-TEV-PDGFRβ (557-1016) (Homo sapiens (Human), UniProt P09619) data, read-out IC50
Sequence (P09619 557-1016): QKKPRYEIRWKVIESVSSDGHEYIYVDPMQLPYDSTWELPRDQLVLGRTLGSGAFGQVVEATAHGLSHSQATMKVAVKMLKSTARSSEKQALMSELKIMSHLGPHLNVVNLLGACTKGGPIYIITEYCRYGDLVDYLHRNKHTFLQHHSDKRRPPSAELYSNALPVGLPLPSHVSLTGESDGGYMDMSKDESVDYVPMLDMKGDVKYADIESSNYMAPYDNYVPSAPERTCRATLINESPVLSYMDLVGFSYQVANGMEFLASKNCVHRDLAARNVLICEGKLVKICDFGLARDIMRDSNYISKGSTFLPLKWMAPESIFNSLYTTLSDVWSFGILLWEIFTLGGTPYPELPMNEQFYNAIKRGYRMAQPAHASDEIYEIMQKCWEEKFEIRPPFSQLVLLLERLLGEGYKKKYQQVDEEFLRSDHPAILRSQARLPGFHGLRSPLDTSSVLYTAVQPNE
Report the value in nM with no unit label.

Record request: IC50 value, item Cc1ncc(C(=O)NCCN2CCOCC23CC3)cc1NC(=O)c1cnn2cc(-c3cnn(C)c3)sc12 [Example 110]
0.6

So what does the record say about IC50 for Cc1ncc(C(=O)NCCN2CCC3(CC3)C2)cc1NC(=O)c1cnn2cc(-c3ccccn3)sc12 [Example 160] ?
0.2

Recorded IC50 for COCCn1cc(-c2cn3ncc(C(=O)Nc4cc(NC(=O)CCN5CCC56CCC6)cnc4C)c3s2)cn1 [Example 95] , please?
0.4

What value of IC50 has been recorded for this entry: Cc1ncc(C(=O)NCCN2CCCOCC2)cc1NC(=O)c1cnn2cc(-c3cnn(C)c3)sc12 [Example 121]
0.4

Request the reported IC50 associated with Cc1ncc(C(=O)NCCN2CC3CCC2CC3)cc1NC(=O)c1cnn2cc(-c3cn(C)nc3C)sc12 [Example 178]
0.2

Give its IC50 value. Item: Cc1ncc(NC(=O)CN2CCC23CCC3)cc1NC(=O)c1cnn2cc(-c3cnn4c3OCCC4)sc12 [Example 408]
0.2

Field request: IC50 | item: Cc1ncc(NC(=O)CN2CCCC2(C)C)cc1NC(=O)c1cnn2cc(-c3cnn(CCO)c3)sc12 [Example 447]
0.5

Fill in: IC50 of Cc1ncc(C(=O)NCCN2CCCC2(C)C)cc1NC(=O)c1cnn2cc(-c3cn(C)nc3CO)sc12 [Example 224] is ___
1.4

Recorded IC50 for Cc1ncc(C(=O)NCCN2CCCC2(C)C)cc1NC(=O)c1cnn2cc(-c3cn(C)cn3)sc12 [Example 163] , please?
0.3
